Sourced from PubChem BioAssay

# Experiment Notes: ovarian cancer cell viability with rucaparib, profiling panel, oncology-focused library, rucaparib conditional (AID 1508598)
# Condition Context: patient-derived ovarian cancer cells, CellTiter-Glo viability, 144 h; at 0.313 µM; OCI-P5x cells; with rucaparib 20 µM; stronger effect = lower value; 100% = cells with rucaparib alone
Threshold check on viability: strictly below 80% is MET; on or above 80% is NOT MET.

Compound | Label
CC(C)[C@@]12O[C@@H]1[C@@H]1O[C@]13[C@]1(O[C@@H]1C[C@@H]1C4=C(CC[C@@]13C)C(=O)OC4)[C@@H]2O | MET
O=S(=O)(CC1CS1)c1ccc(Oc2ccccc2)cc1 (stereo not given) | NOT MET
Cn1c(CCCC(=O)O)nc2cc(N(CCCl)CCCl)ccc21 | NOT MET
Cc1c(N)nc([C@H](CC(N)=O)NC[C@@H](N)C(N)=O)nc1C(=O)N[C@H](C(=O)N[C@@H](C)[C@H](O)[C@@H](C)C(=O)N[C@@H](C(=O)NCCc1nc(-c2nc(C(=O)NCCC[S+](C)C)cs2)cs1)[C@@H](C)O)C(O[C@H]1O[C@H](CO)[C@H](O)[C@@H](O)[C@H]1O[C@H]1O[C@H](CO)[C@@H](O)[C@H](OC(N)=O)[C@@H]1O)c1cnc[nH]1 (stereo not given in full) | MET
Cc1sc2c(c1C)C(c1ccc(Cl)cc1)=N[C@@H](CC(N)=O)c1nnc(C)n1-2 | MET

###

Here the recorded inhibition is given for each entry.
# System: Hepatitis C virus NS3 helicase
# Experiment Notes: HCV NS3 helicase inhibitors, primary screen, biochemical, fluorescence polarization, LOPAC1280 library (AID 687035)
# Condition Context: Purified HCV NS3 helicase, Cy5-dT15 ssDNA binding fluorescence polarization; stronger effect = higher value; concentration not given here

Molecule | Unit Name | inhibition
C/C=C(/C)C(=O)O[C@H]1C(C)=C2[C@H]([C@@H]1OC(=O)CCCCCCC)[C@@](C)(OC(C)=O)C[C@H](OC(=O)CCC)[C@@]1(O)[C@H]2OC(=O)[C@@]1(C)O | % | -3
COc1ccc(OC)c(C(O)C(C)N)c1 (stereo unspecified) | % | -2
Cc1sc2ccccc2c1CC1=NCCN1 | % | -3
CN1CC[C@@]2(C)c3cc(OC(=O)Nc4ccccc4)ccc3N(C)[C@@H]12 | % | -3
CCS(=O)(=O)Nc1cccc(C(=C2CCCCC2)c2cnc[nH]2)c1 | % | 0
NC(=O)CN1CCCC1=O | % | -4
c1ccc2c(c1)OCC(C1=NCCN1)O2 (stereo unspecified) | % | -7
CCN(CCCl)Cc1ccccc1Br | % | -2
CN(N=O)c1ccc(O)c(O)c1 | % | 27
O=C1CC[C@@]2(O)C3Cc4ccc(O)c5c4C2(CCN3CC2CC2)[C@H]1O5 (stereo partly specified) | % | -6
COc1ccc2c(c1)c(CCN1CCOCC1)c(C)n2C(=O)c1cccc(Cl)c1Cl | % | -1

###

# Experiment Notes: sensitizers of A549 cells to miR-34 induction, primary screen, imaging, A549 dox-inducible miR-34, nuclei and caspase counts (AID 1347080)
# Condition Context: A549 miR-34 inducible, Hoechst nuclei count, 48 h; measured here: total cells with miR-34 induction; stronger effect = lower value
Consider the cut-off 8000. If the recorded cell count is strictly smaller, the label is Criterion met; if not, the label is Criterion not met.

Compound | Label
CN1C(=O)CN=C(c2ccccc2)c2cc([N+](=O)[O-])ccc21 | Criterion not met
CCCOc1ccc2[nH]cc(C3=CCNCC3)c2n1 | Criterion not met
C[C@H](N)CN1CCc2ccc(Br)cc21 | Criterion not met
CCCCC/C=C\C=C\[C@H](CCCCCCCC(=O)O)OO | Criterion met
CCCCC/C=C\C/C=C\C/C=C\C/C=C\CCCC(=O)N[C@@H](C)C(=O)O | Criterion met
NC(Cn1oc(=O)[nH]c1=O)C(=O)O (configuration not stated) | Criterion not met
C[N+]1(C)C2CC[C@H]1CC(OC(=O)C(CO)c1ccccc1)C2 (some centres not stated) | Criterion not met
OC(Cc1ccncc1)C(Cl)(Cl)Cl (configuration not stated) | Criterion not met
CCc1cccc(CC)c1NC1=NCCN1 | Criterion not met
COC(=O)/C=C/C(=O)N[C@@H]1CC[C@@]2(O)[C@H]3Cc4ccc(O)c5c4[C@@]2(CCN3CC2CC2)[C@H]1O5 | Criterion met
CCC(Oc1ccc(Cl)cc1)C(=O)OC1CC2CCC(C1)N2C (configuration not stated) | Criterion not met
COc1cc(/C=C\c2ccc(OC)c(O)c2)cc(OC)c1 | Criterion met
C=C1[C@@H](C)[C@H]2[C@H](Cc3ccccc3)NC(=O)C23[C@H](OC(C)=O)/C=C/[C@](C)(O)C(=O)[C@@H](C)C/C=C/[C@H]3[C@@H]1O (some centres not stated) | Criterion met
NC1=NC(=O)C(c2ccccc2)O1 (configuration not stated) | Criterion not met
Ic1ccccc1CNC1C2CCN(CC2)C1C(c1ccccc1)c1ccccc1 (configuration not stated) | Criterion met
C=C[C@H]1CN2CC[C@H]1C[C@@H]2[C@@H](OC(=O)OCC)c1ccnc2ccc(OC)cc12 | Criterion not met
CCc1cc2c(s1)-n1c(C)nnc1CN=C2c1ccccc1Cl | Criterion not met
CCCCC/C=C\C/C=C\C/C=C\C/C=C\CCCC(=O)NCCc1c[nH]c2ccc(O)cc12 | Criterion met
C=C(C)[C@H]1O[C@H]2CC[C@@]3(C)[C@@](O)(CC[C@H]4[C@@H]5OC(C)(C)[C@H]6C[C@@H]7C(=C)Cc8c(Cl)cc9[nH]c(c5c9c8[C@@]76O)[C@@]43C)[C@]23O[C@@H]3[C@H]1O | Criterion met
C[C@]12CCC(O)C[C@@H]1CC[C@@H]1[C@H]2CC[C@]2(C)C(=O)CC[C@@H]12 (some centres not stated) | Criterion met
CN1CCc2cccc(Cl)c2CC1 | Criterion not met
CC(C)[C@]1(O)[C@@H](OC(=O)c2ccc[nH]2)[C@@]2(O)[C@@]3(C)C[C@]4(O)O[C@@]5([C@H](O)[C@@H](C)CC[C@]35O)[C@@]2(O)C41C | Criterion met
CCCCC/C=C\C/C=C\C/C=C\C/C=C\CCCCOC(CO)CO | Criterion met
O=C(O)[C@@H]1CCN1 | Criterion not met
C=CCN1CC[C@]23CCCCC2[C@H]1Cc1ccc(O)cc13 (some centres not stated) | Criterion not met
Cc1c(N)nc(C(CC(N)=O)NCC(N)C(N)=O)nc1C(=O)NC(C(=O)NC(C)C(O)C(C)C(=O)NC(C(=O)NCCc1nc(-c2nc(C(=O)NCCC[S+](C)C)cs2)cs1)C(C)O)C(OC1OC(CO)C(O)C(O)[C@H]1OC1OC(CO)C(O)C(OC(N)=O)C1O)c1cnc[nH]1 (some centres not stated) | Criterion met
CCCC[N+]1(C)[C@@H]2CC(OC(=O)C(CO)c3ccccc3)C[C@H]1[C@@H]1O[C@@H]12 (some centres not stated) | Criterion not met
Cc1cc([C@@H]2CCCN2C)on1 | Criterion not met
CC1CC[C@@]2(OC1)O[C@H]1C[C@H]3[C@@H]4CC=C5CC(O[C@@H]6OC(CO)C(O[C@@H]7OC(C)C(O)C(O)C7O)C(O)C6O[C@@H]6OC(C)C(O)C(O)C6O)CC[C@]5(C)[C@@H]4CC[C@]3(C)[C@@H]1C2C (some centres not stated) | Criterion met
O=C(O)CNC(=O)c1c(O)c2ccccc2n(Cc2ccccc2)c1=O | Criterion not met
C[C@]12CC[C@H]3[C@@H](CC[C@]4(O)C[C@@H](O)CC[C@]34C=O)[C@@]1(O)CC[C@@H]2C1=CC(=O)OC1 | Criterion met
CN[C@@H]1CC2OC(C)([C@@H]1OC)n1c3ccccc3c3c4c(c5c6ccccc6n2c5c31)C(=O)NC4 (some centres not stated) | Criterion met
NCCc1ccc(S(N)(=O)=O)cc1 | Criterion not met
NC1C[C@H]1c1ccccc1 (some centres not stated) | Criterion not met
C=CCN=C=S | Criterion met
C[C@]12CCC3[C@@H](CC[C@@]45O[C@@H]4C(O)=C(C#N)C[C@]35C)C1CC[C@@H]2O (some centres not stated) | Criterion not met

###

# Lookup of reported inhibition keyed by entry
# Test system: Hepatitis C virus NS3 helicase
# Experiment Notes: HCV NS3 helicase inhibitors, primary screen, biochemical, fluorescence polarization, LOPAC1280 library (AID 687035)
# Condition Context: Purified HCV NS3 helicase, Cy5-dT15 ssDNA binding fluorescence polarization; stronger effect = higher value; concentration not given here
Experimental Endpoint: inhibition (%)

Molecule | Tgt | Experimental Endpoint | Data Value
CC1(C(=O)O)C2CCC(O2)C1(C)C(=O)O (configuration not stated) | Hepatitis C virus NS3 helicase | inhibition | -5
COc1ccc2[nH]c3c(c2c1)CCNC3 | Hepatitis C virus NS3 helicase | inhibition | 1
C=C(C)[C@H]1Cc2c(ccc3c2O[C@@H]2COc4cc(OC)c(OC)cc4[C@@H]2C3=O)O1 | Hepatitis C virus NS3 helicase | inhibition | -1
CN1C[C@H](CNC(=O)OCc2ccccc2)C[C@@H]2c3cccc4c3c(cn4C)C[C@H]21 | Hepatitis C virus NS3 helicase | inhibition | -2
O=C1NCN(c2ccccc2)C12CCN(CC1COc3ccccc3O1)CC2 (configuration not stated) | Hepatitis C virus NS3 helicase | inhibition | -6
NNC(=O)c1ccc(O)cc1 | Hepatitis C virus NS3 helicase | inhibition | 1
CCCCC/C=C\C/C=C\C/C=C\C/C=C\CCCC(=O)NCC(=O)O | Hepatitis C virus NS3 helicase | inhibition | -1
C[N+](C)(C)CCOC(=O)CBr | Hepatitis C virus NS3 helicase | inhibition | -2
C[C@@H]1O[C@@H](O[C@H]2C[C@@H](O)[C@]3(CO)[C@H]4[C@H](O)C[C@]5(C)[C@@H](C6=CC(=O)OC6)CC[C@]5(O)[C@@H]4CC[C@]3(O)C2)[C@H](O)[C@H](O)[C@H]1O | Hepatitis C virus NS3 helicase | inhibition | -4
c1ccc2c(N3CCNCC3)cccc2c1 | Hepatitis C virus NS3 helicase | inhibition | -1
O=c1c2ccccc2[se]n1-c1ccccc1 | Hepatitis C virus NS3 helicase | inhibition | -2
C[N+]1(C)CCC(OC(=O)C(c2ccccc2)c2ccccc2)CC1 | Hepatitis C virus NS3 helicase | inhibition | -2
CC(=O)[C@H]1CC[C@H]2[C@@H]3CC[C@H]4C[C@H](O)CC[C@]4(C)[C@H]3C(=O)C[C@]12C | Hepatitis C virus NS3 helicase | inhibition | -1
CC(C)CC(NP(=O)(O)O[C@@H]1O[C@@H](C)[C@H](O)[C@@H](O)[C@H]1O)C(=O)NC(Cc1c[nH]c2ccccc12)C(=O)O (some centres not stated) | Hepatitis C virus NS3 helicase | inhibition | -2
CN1CCC(c2c[nH]c3ccc(O)cc23)CC1 | Hepatitis C virus NS3 helicase | inhibition | -2
NCCc1c[nH]c2ccccc12 | Hepatitis C virus NS3 helicase | inhibition | 0
C[Se]C[C@H](N)C(=O)O | Hepatitis C virus NS3 helicase | inhibition | -5
